Target: T1, human ferroportin (SLC40A1) fused in frame with GFP, stably expressed in HEK293 cells (human, UniProt Q9NP59 1-571)
T1 sequence (looked up): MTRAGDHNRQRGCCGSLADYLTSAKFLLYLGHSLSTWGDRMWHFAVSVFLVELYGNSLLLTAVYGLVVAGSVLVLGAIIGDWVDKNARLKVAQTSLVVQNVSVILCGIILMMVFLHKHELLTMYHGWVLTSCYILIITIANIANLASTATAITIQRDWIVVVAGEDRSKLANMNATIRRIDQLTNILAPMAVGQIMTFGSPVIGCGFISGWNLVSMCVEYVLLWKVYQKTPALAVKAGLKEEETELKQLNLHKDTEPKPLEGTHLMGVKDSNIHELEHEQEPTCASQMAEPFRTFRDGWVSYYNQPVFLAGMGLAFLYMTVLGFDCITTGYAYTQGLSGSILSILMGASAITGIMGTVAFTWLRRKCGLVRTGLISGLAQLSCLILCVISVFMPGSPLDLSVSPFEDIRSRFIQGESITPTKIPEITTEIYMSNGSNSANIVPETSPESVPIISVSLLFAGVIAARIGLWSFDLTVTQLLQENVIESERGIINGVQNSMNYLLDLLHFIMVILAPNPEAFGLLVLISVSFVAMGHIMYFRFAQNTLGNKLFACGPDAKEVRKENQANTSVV
Assay: cell-based or functional assay
Positions of bridges follow the written chain, without caps; N, C: chain ends. Non-standard residues stand in square brackets, D forms with d. Groups on a side chain read outwards from the residue. *: point of attachment. Dip = N[C@H](C(=O)O)C(c1ccccc1)c1ccccc1; Palmitoyl = CCCCCCCCCCCCCCCC(=O)*; β3hF = N[C@H](CC(=O)O)Cc1ccccc1; Isovaleryl = CC(C)CC(=O)*; Ahx = NCCCCCC(=O)O
QUANTITY: IC50: FPN internalisation (nM)
Write down the numeric answer in nM and omit the unit.

Entry XXTHXPCIXXXC ([Isovaleric Acid]-[Glu(OMe)]-T-H-[Dpa]-P-C-I-[Lys(1PEG2_1PEG2_Dap_C18_Diacid)]-[Phe(4-COOH)]-[(D)Lys]-C-NH2) [Seq. No. 503] : reported IC50: FPN internalisation = ?
180

Entry XETHXPCIXXXC ([Isovaleric Acid]-E-T-H-[Dpa]-P-C-I-[Lys(1PEG2_1PEG2_IsoGlu_C18_Diacid)]-[bhPhe]-[(D)Lys(Carnitine)]-C-NH2) [Seq. No. 543] : reported IC50: FPN internalisation = ?
13.2

Entry XETXXPCIXXXC ([Isovaleric Acid]-E-T-[3Quin]-[Dpa]-P-C-I-[Lys(1PEG2_1PEG2_Dap_C18_Diacid)]-[bhPhe]-[(D)Lys]-C-NH2) [Seq. No. 479] : reported IC50: FPN internalisation = ?
475

Entry Isovaleryl-ETH[Dip]ACI[dK][β3hF]K([Ahx-Palmitoyl])[dK]C-NH2 (not fully specified (bridges); cysteine pairing not given here) [Seq. No. 574] : reported IC50: FPN internalisation = ?
10.2

Entry XETHXPCIXXXC ([Isovaleric Acid]-E-T-H-[Dpa]-P-C-I-[N-MeLys(Ahx_Palm)]-[bhPhe]-[(D)Lys(Carnitine)]-C-NH2) [Seq. No. 542] : reported IC50: FPN internalisation = ?
9.02

Entry Isovaleryl-ETH[Dip]PCI[dK][β3hF]K([Ahx-Palmitoyl])[dR]C[dR]-NH2 (disulfide 6-12 (inferred)) [Seq. No. 474] : reported IC50: FPN internalisation = ?
54.6
